- protocolDetails: soluble on expression in E. coli; label from the status in PepcDB or PDB records
measuredEndpoint: soluble on expression in E. coli

MGSDKIHHHHHHMRRIRTLLSKKPSKLVFNLRKYAAFRQAWKSINVNRTSYSKTRRHYDAVVIGSDEVWNIQNPTFAMMPEYFGRGLNAKNIITYAPSSSKTTYADVAQNPLLAEGMRNIHHFSARDRNTFEIVEKIVNKPVTMVLDPTFLVEYDEEVEEAGVNSHGYVLVYTYQFDRLKIEKTRRFARSRGLRLISPCFYNDWCDEVVPCTPFGFLGLIRDAEYVVTDTFHGSIFSILYGKHFGSYASEKIKVAALLSALGLADRELGGVDDIGSVLDARIDYGRVRTCIEQERDVSLNYLRQALAPAG: not soluble
INALVIGDLMLDQYLWGKAERISPEAPVQVVDVTREEIRIGGAGNVANNLVALGCRVSVASVVGGDENGTILLHAFSGKGIDVTGIVEDPSRTTSRKTRVLASNQQIVRIDRESRDEIGPDNERRIVDYLNAHGDRFNVILVSDYLKGVLTPTLLAEVIAFARKREIPVVVDPKGSDYAKYRGATVLTPNRKEAEAASGIAIRDDESLCRAGERLLETADLTALVITRSEEGMSLFLRGGQVVHIPTYAREVFDVTGAGDTVLAVLGMALAGGVGFADGARLANVAAGVAVGKVGTSTVSPAEIVGSLG: not soluble

###

- protocolDetails: soluble on expression in E. coli; label from the status in PepcDB or PDB records
measuredEndpoint: soluble on expression in E. coli

YEFKKRNNIPMFFGIGNVTELFDVDSNGVNASIAAIGQEIGGNILFTPEASKKCKFSIKELKTASKMLFLAKKRNSLPKDVGYDLINYKDKKFDEEFELEDVKIIEAFENEKQLLDRGSFKIRVDRKNKEINATYYVHNQPKLIIRGNDPKKIYETALRENLITKMDHAAYFGKELRNAELALKLGKKYNQDFELFYNEFWN: not soluble
LLVDKKVSVNDVDIGLISLQYLNIIANYTNKKAIEKITDYLVITSKILAKKADNLLNDHQEESVLEYDLATNNFRDKMIANLVEHKRYCDSLGEFEKLRVNRLAYFSKANEMEQFIKTANDQLVTVEDQLPNYISVLKLFHAMNKLLEMRLSSLLTNKNITIKELSVEQVQKELVLAIKQFNYQTVSLKRVLLKLN: not soluble
MSLTEATVERIRLFLIESPIKMARLQGVGNVKGTVKRVLIELTSSDGVIGWGEAAPWEVFTGTPEAAFSALDIYLRPIALGKPVRRIRALMAELDRALVGHAEAKVAIEMALLDIVGKSSGLSVADLLGGRVRDTIPLSFSIADPDFPADLERMRKMVPDGNVIYKVKTGVKPHREDLDHLEAIRKEFGDKVDLRVDYNQALAPFGAIKILRDVEEFAPTFIEQPVPRKYLDVMAQLTAALETPVLADESCFDRRDMMEVVRREAADAVSIKLMKAGGLFEAQAIMAIADIAGLPGYGGTLWEGGIGLAAGTQLIAATPGISLGCEFYMPHHVLTEDVLEERVANRAGHVVVPDGPGLGIRVSEASVRANAQVLAEGHHHHHH: not soluble

###

- protocolDetails: soluble on expression in E. coli; label from the status in PepcDB or PDB records
measuredEndpoint: soluble on expression in E. coli

Completed entries (count: 4):
MQGTRVMHIFVLSKRKITMNVDNVKSQMRKGMLEYCIMLLLHKEPAYASDIIQKLKEAQLIVVEGTLYPLLTRLKNDDLLSYEWVESTQGPPRKYYKLTEKGEAFLGELEISWKELNETVNHIASR: not soluble
NIITVTLNMERHHFLGISIVGQSNDRGDGGIYIGSIMKGGAVAADGRIEPGDMLLQVNDVNFENMSNDDAVRVLREIVSQTGPISLTVAK: soluble
MMSIFSVQTGSLVGTVHRYVKQPRQSWAYPIKQKSQTGTDNTKSALTLEKFTKPLTRKFSHDTICRKAPFVGVELQKPSATLTIMGKVHRQRQE: not soluble
MAHHHHHHMLRGTRGFLAVSPGVGIAPETTPVKYTPMMLNIQNMMWWNGKRNLYRATYREKTWYEISRTGAFTKGRRPVMRQKYSREALQAALAMVPPGFEVADVPRPPQRILAQSEGIVGRWYSNYWTLHSMRYQCLLAGVEWPLGERQRPRTNYDEPFFFADFEESKAIQDYRSRWINVNRSLVGMTKRMKEAEEEARYMQFRKLQDTFWSNRKVLVNRVKSMYNQGARTSAKDMPIKTINIKAFLSE: not soluble

Lab note: measured soluble on expression in E. coli of GPGSMFFLTRFKLGMADVTAAIGSGKCGEVLRKLNEKKAVREREENIDYRRALCFLANSQDVFHARQALLEELRHFPNNTAARTLLLEVNETVRPLLMPPKELLKSEPLFGLLCDALLDHTMLTWTRLYSLYRLSKEVCSKEGEGGALMECGVSGGGSVVLLAVVAAHYSKKPRKIYALDTFSGMPEPTTHDNLEEDGNLKPAESTSWGSGTCSATVENVRQLAKNFDVEEGLVVIPGLFHETMPKTLREISDEGISMLHVDADWYESTRCALELAWPMVKQGGMVQVDDYHYWLGCRKAVDEFAQREESEHRPLPILQNVDGNAVYFTKP was not soluble

Lab note: measured soluble on expression in E. coli of MSILMPVRNEERFLPAALASLCRQSLTAWELIVVDDGSTDDTPELLRVAAARDRRVRVFNNAGAGLVDALNYGLAHCRAELVARMDGDDISHPQRLERQAAALDADPGLGLVATRFRHFPRHSVGLGMRAYEEWQNGLLTHEEIMRDRFVESPVVHPSVMARRQALTDAGGYRKTGWAEDYDLWLRLAAGGVRFTRLPEVLFFWRERPERATRTMGEYAADAFRACKIHHLCQGFLLGVDNVTLAGAGLEGRAWQRALAREGVRVGRWLDVDPRKQGRILHGAPVTAPDDVRAGAEKILVTVGTRGARDGVRAWARRAGLREGEDFVCVTLEHHHHHH was not soluble

Lab note: measured soluble on expression in E. coli of AIATDCEWFDMTWGSSASSGYCSQSDSDEHELELFYTARTSLRKSRKCRDKDEQSEVDWRKQDLSVTEIQQKVKEYNAQVNSNLFMVLNRDGSYTGFIKVQFKLARPVSLPPPRSVSSSSISSSCLGWDGGCQERTSFYLPRDTVKHLHISSSTRAREVIQALLNKFTVVDNPAKYSLYERSQRDNQVYLRKLADDECPLFLRLCAGPNEKVLSLVLKENETGEVNWDAFSFPELQNFLRILQREEEDHVRQIIRRYTLARDKMKEAMKNFSTPG was soluble

###

- protocolDetails: soluble on expression in E. coli; label from the status in PepcDB or PDB records
measuredEndpoint: soluble on expression in E. coli

MSEPLHALARQLEQAIRASEPFQQLKRAYEDVRRDETAYRMFANVRDIQLRLHEKQMRGAAILPDEIEQAQKAMALAQQNEKLARLMALEQQMSITIAEVQQIAMKPLEELHRSFMEGR: soluble
MKWDEIGKNIAKEIEKEILPYFGRKDKSYVVGTSPSGDETEIFDKISEDIALKYLKSLNVNIVSEELGVIDNSSEWTVVIDPIDGSFNFINGIPFFAFCFGVFKNNEPYYGLTYEFLTKSFYEAYKGKGAYLNGRKIKVKDFNPNNIVISYYPSKKIDLEKLRNKVKRVRIFGAFGLEMCYVAKGTLDAVFDVRPKVRAVDIASSYIICKEAGALITDENGDELKFDLNATDRLNIIVANSKEMLDIILDLL: soluble

###

- protocolDetails: soluble on expression in E. coli; label from the status in PepcDB or PDB records
measuredEndpoint: soluble on expression in E. coli

Completed entries (count: 5):
MPTLPRAANSRWRSLKIGLAPDLGLDDNGSLLLDFGPRQFTVSFDETLKPFVRDVSGSRLKDLPKPNKSDDETRANDAVNRYKLLKKDARTIAAQQVARLESAMCLRRRWSLENFQLFLVEHPLVRHLTRRLIWGVYSAENQLLACFRVAEDNSSSTADDDLFTLPEGDISIGTPHVLEISPTDAAAFGQLFADYELLPPFRQLDRNSYALTEAERNASELTRWAGRKCPSGRVMGLANKGWIKGEPQDGGWIGWMIKPLGRWSLIMEIDEGFAVGMSPAELSAEQLLSKLWLWEGKAERYGWGSNSTQEAQFSVIDAITASELINDIEALFE: not soluble
MGSDKIHHHHHHMDRIQEMTLFAALAGQTSFTGVARHVGLSTATVTRAVASLESRLGILLVVRTTRNMRLTKAGQRFAEDCRRLLADLSEAENAAAGVHALPAGTLTVTAPQMFGALHVTPVLTRFLSEYPAVDIRAILVDRVVSMLDEGVDVAVRIGALRDSSLTAIRVGSVRRMVCASPVYLTQHGTPRHPDDLQQHATISTSAPERPPHWAFRVDDQDYSVNVASRLSLTSFQASINAALQHWGLTQVPHYQIREHLHNGRLVCVLEDFEIAPEPVHVVYSEGRRGSSRVRSFVDFCVSALREDLQFEAAG: not soluble
MRIRIRVLSHFSSALGFDESSFSIGEGITFAELRSKLIEQFSAFVRPIEIGMYVNMKPVPDDYTMMDGDIVYVFPRSSTP: not soluble
ETGGERQLSPEKSEIWGPGLKADVVLPARYFYIQAVDTSGNKFTSSPGEKVFQVKVSAPEEQFTRVGVQVLDRKDGSFIVRYRMYASYKNLKVEIKFQGQHVAKSPYILKG: soluble
MQTWQLPEHIADVLPTNARQLESAREQLLALFRVHGYELVQPPLMEYAHSLLTHIDAGLSLKTILVTDRLSGRQLGIRADITPQVARIDAHLLSANQGINRLCYAGPVLHAQPDGLLNMREPLQAGAEMYGFADIRGDIELIDLMLKSMKIADMGKVLLSLGHIGIFRALSDAAHLDAGQSATLLALMQDKDTGAVEAQVKAWKLDGMWAKAFSLLPRLYGGREVLSDARGRLPDLSAVGGALGELQAVCDAFPDCEIHIDLSELRVDNYHTGLLYAAYAADFHDAVARGGRYDGLGGYFGRARPATGFSFDLRSFIGRLPAIERQPAVLVDAEDAEAAHEAVEALREQGQCVVIDYGIGHNVSEELAGRLKKTDGVWQVVKR: not soluble

Let us examine a further case.
Lab note: measured soluble on expression in E. coli of ATTLYLTRHGETKWNVERRMQGWQDSPLTEKGRQDAMRLGKRLEAVELAAIYTSTSGRALETAEIVRGGRLIPIYQDERLREIHLGDWEGKTHDEIRQMDPIAFDHFWQAPHLYAPQRGERFCDVQQRALEAVQSIVDRHEGETVLIVTHGVVLKTLMAAFKDTPLDHLWSPPYMYGTSVTIIEVDGGTFHVAVEGDVSHIEEVKEV was soluble
